target: delF508-CFTR (Homo sapiens, UniProt P13569, DEL508-508); construct: expressed in transfected cells; assay: Measurement of delF508-CFTR-HRP surface expression in CFBE41o- cells; format: cell-based; conditions: HRP-tagged delF508-CFTR in CFBE41o- cells, 24 h with compound, luminescence, 10-point curve, top 10 μM
Sequence (P13569 with tags, fused parts or gaps DEL508-508): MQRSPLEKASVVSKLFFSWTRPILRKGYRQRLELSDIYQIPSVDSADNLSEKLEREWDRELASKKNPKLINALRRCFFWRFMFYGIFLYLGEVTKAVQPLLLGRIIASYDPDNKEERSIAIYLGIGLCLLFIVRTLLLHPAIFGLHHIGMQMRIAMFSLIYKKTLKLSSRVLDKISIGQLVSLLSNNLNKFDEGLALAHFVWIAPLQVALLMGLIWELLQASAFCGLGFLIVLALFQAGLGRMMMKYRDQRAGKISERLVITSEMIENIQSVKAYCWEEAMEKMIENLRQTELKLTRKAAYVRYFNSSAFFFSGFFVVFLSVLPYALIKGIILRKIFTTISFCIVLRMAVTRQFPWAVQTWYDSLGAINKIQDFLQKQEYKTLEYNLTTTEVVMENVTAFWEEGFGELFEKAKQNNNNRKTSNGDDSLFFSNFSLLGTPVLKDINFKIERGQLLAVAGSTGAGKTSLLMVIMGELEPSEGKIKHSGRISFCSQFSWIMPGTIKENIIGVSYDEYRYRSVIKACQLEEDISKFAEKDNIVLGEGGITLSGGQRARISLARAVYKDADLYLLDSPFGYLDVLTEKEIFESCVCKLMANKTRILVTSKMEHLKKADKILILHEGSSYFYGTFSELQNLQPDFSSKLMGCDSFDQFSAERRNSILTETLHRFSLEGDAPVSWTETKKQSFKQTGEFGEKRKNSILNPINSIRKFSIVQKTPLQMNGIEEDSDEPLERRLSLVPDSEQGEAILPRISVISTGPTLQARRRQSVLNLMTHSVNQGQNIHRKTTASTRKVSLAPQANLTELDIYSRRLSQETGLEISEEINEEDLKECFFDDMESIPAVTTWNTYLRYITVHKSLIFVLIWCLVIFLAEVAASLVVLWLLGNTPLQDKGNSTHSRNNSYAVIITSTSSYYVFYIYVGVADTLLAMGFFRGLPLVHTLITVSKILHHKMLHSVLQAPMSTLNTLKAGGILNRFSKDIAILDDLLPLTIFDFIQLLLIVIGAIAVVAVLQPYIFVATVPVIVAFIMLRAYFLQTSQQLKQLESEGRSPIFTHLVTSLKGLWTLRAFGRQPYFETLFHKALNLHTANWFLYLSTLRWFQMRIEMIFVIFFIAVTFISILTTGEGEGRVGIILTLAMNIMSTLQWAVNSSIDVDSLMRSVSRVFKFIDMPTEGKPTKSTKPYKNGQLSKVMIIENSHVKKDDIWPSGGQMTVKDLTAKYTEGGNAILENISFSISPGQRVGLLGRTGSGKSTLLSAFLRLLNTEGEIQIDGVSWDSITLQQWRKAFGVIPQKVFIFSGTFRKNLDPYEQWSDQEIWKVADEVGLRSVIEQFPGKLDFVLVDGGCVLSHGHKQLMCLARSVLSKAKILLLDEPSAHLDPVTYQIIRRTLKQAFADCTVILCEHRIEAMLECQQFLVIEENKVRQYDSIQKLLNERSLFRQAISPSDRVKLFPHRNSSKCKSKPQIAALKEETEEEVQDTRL
metric: EC50 (nM)

Here are 5 compounds together with their reported answers.
• Cc1ccccc1-c1nc(NS(=O)(=O)c2cccc(N3CCCC(CCCC(=O)O)C3)n2)ccc1C(F)(F)F (stereo not drawn) [Compound 75] = 2000
• Cc1c(F)cccc1-c1nc(NS(=O)(=O)c2cccc(N3CCCC(C)(CC(=O)O)C3)n2)ccc1C(F)(F)F (stereo not drawn) [Compound 50] = 2100
• O=C(O)CCCCNc1cccc(S(=O)(=O)Nc2ccc(C(F)(F)F)c(-c3ccccc3C3CC3)n2)n1 [Compound 42] = 2670
• Cc1ccc(F)cc1-c1nc(NS(=O)(=O)c2cccc(N(C)CC3(C(=O)O)CCC3)n2)ccc1C(F)(F)F [Compound 139] = 1120
• Cc1ccc(F)cc1-c1nc(NS(=O)(=O)c2cccc(N(CCCCC(=O)O)C(C)C)n2)ccc1C(F)(F)F [Compound 100] = 2490

P: Cc1ccccc1-c1nc(NS(=O)(=O)c2cccc(OCCC(=O)O)n2)ccc1C(F)(F)F [Compound 121]
Q: CCCCN(CCCC(=O)O)c1cccc(S(=O)(=O)Nc2ccc(C(F)(F)F)c(-c3ccccc3C)n2)n1 [Compound 87]
Of the pair P and Q , name the member with the lesser recorded EC50. Reply with the label of the item you choose.
Q

I: Cc1cccc(C)c1-c1nc(NS(=O)(=O)c2ccnc(NC(C)CC(=O)O)c2)ccc1Cl (stereo not drawn) [Compound 142]
II: CC1(C(=O)O)CCN(c2cccc(S(=O)(=O)Nc3ccc(Cl)c(-c4ccccc4-c4ccccc4)n3)n2)CC1 [Compound 19]
Form field 'greater EC50' accepts I or II ; which applies? Respond with the label that goes with your answer.
I

P: Cc1ccccc1-c1nc(NS(=O)(=O)c2cccc(N3CCC(C)(CC(=O)O)C3)n2)ccc1C(F)(F)F (stereo not drawn) [Compound 53]
Q: CCN(CCC(=O)O)c1cc(S(=O)(=O)Nc2ccc(Cl)c(-c3c(C)cccc3C)n2)ccn1 [Compound 140]
For this pair, P and Q , which shows a numerically higher EC50? Please indicate the selected item by its label.
Q
(Q: 2920 nM, P: 1780 nM)

* * *

biological target: delF508-CFTR (Homo sapiens, UniProt P13569, DEL508-508); construct: expressed in transfected cells; assay: Measurement of delF508-CFTR-HRP surface expression in CFBE41o- cells; format: cell-based; conditions: efficacy relative to reference compound 3-(6-(1-(2,2-difluorobenzo[d][1,3]dioxol-5-yl)cyclopropane-1-carboxamido)-3-methylpyridin-2-yl)benzoic acid; CFBE41o- cells, 24 h; read-out: DelF508-CFTR-HRP Amax %
metric: Emax (%)

Consider the following illustrative entries.
- Cc1cccc(C)c1-c1nc(NS(=O)(=O)c2cccc(N3CCC(CC(=O)O)CC3)n2)ccc1Cl: 596
- Cc1ccccc1-c1nc(NS(=O)(=O)c2cccc(N3CCC(CC(=O)O)C3)n2)ccc1C(F)(F)F (stereo not shown): 372

I: CCc1ccccc1-c1nc(NS(=O)(=O)c2cccc(OC3CCC(C(=O)O)CC3)n2)ccc1C(F)(F)F (stereo not shown)
II: Cc1ccccc1-c1nc(NS(=O)(=O)c2cccc(N(C)CCCC(=O)O)n2)ccc1C(F)(F)F
Of the two listed items, I and II , which carries the larger Emax figure? Provide the label of your selected option as the answer.
II
(II: 982%, I: 330%)

* * *

target: delF508-CFTR (Homo sapiens, UniProt P13569, DEL508-508); construct: expressed in transfected cells; assay: delF508-CFTR functional activity in primary human bronchial epithelial cells (HBECs), Multi-Transepithelial Clamp Circuit (MTECC-24) assay; assay type: cell-based; conditions: primary human delF508-CFTR bronchial epithelial cells, 24 h with compound, equivalent short circuit current (Ieq), forskolin plus potentiator; mean of at least two replicates; read-out: MTECC24-CFHBEC EC50
metric: EC50 (µM)

• Cc1ccccc1-c1nc(NS(=O)(=O)c2cccc(N(CCCC(=O)O)CC(C)C)n2)ccc1C(F)(F)F = 0.154
• CCN(CCCC(=O)O)c1cccc(S(=O)(=O)Nc2ccc(C(F)(F)F)c(-c3cc(F)ccc3C)n2)n1 = 0.07
• Cc1ccccc1-c1nc(NS(=O)(=O)c2cccc(N3CCC[C@@H](CC(=O)O)C3)n2)ccc1C(F)(F)F = 0.065
• Cc1ccc(F)cc1-c1nc(NS(=O)(=O)c2cccc(N(CCC(=O)O)CC(C)C)n2)ccc1C(F)(F)F = 0.014

I: CC(C)c1ccccc1-c1nc(NS(=O)(=O)c2cccc(N(C)CCCC(=O)O)n2)ccc1C(F)(F)F
II: Cc1ccc(F)cc1-c1nc(NS(=O)(=O)c2cccc(N3CCC[C@@](C)(CC(=O)O)C3)n2)ccc1C(F)(F)F (single isomer, unassigned)
Which record shows the lower EC50: the first, I , or the second, II ? # respond with the chosen item's label
II
(II: 0.002 µM, I: 0.005 µM)

* * *

Target: delF508-CFTR (Homo sapiens, UniProt P13569, DEL508-508)
Construct: expressed in transfected cells
Assay: Measurement of delF508-CFTR-HRP surface expression in CFBE41o- cells
Type: cell-based
Details: HRP-tagged delF508-CFTR in CFBE41o- cells, 24 h with compound, luminescence, 10-point curve, top 10 μM
Experimental: Measurement of delF508-CFTR-HRP Surface Expression in CFBE41o-Cells This assay quantifies the cell surface expressions of the mutant CFTR channel using an extracellular HRP tag. […] The median activity for the lowest concentration of the compounds on each assay plate was calculated and this value was used to normalize the signal for each well on the respective plate. […] The median value was determined and used to calculate compound activities as described below. […]
metric: EC50 (µM)

* O=C(O)CCNc1cccc(S(=O)(=O)Nc2ccc(C(F)(F)F)c(-c3ccccc3C3CC3)n2)n1 [Compound 39] | 3.26

1: CCCN(CCCC(=O)O)c1cccc(S(=O)(=O)Nc2ccc(C(F)(F)F)c(-c3ccccc3C)n2)n1 [Compound 132]
2: Cc1ccccc1-c1nc(NS(=O)(=O)c2cccc(SCCC(=O)O)n2)ccc1C(F)(F)F [Compound 117]
Which is greater in EC50, the first item 1 or the second item 2 ? Returns: label corresponding to the selected item.
2
(2: 2.43 µM, 1: 1.58 µM)

1: Cc1ccccc1-c1nc(NS(=O)(=O)c2cccc(N(CCC(=O)O)CCC(F)(F)F)n2)ccc1C(F)(F)F [Compound 150]
2: CCN(CCC(=O)O)c1cccc(S(=O)(=O)Nc2ccc(C(F)(F)F)c(-c3cc(F)ccc3C)n2)n1 [Compound 61]
Please state the entry with greater EC50 among 1 and 2 . Kindly give the label for the entry you pick.
2
(2: 3.56 µM, 1: 1.67 µM)

I: CC1(C(=O)O)CCN(c2cccc(S(=O)(=O)Nc3ccc(C(F)(F)F)c(-c4ccccc4-c4ccncc4)n3)n2)CC1 [Compound 27]
II: CC1(CC(=O)O)CCN(c2cccc(S(=O)(=O)Nc3ccc(C(F)(F)F)c(-c4ccccc4-c4ccccc4)n3)n2)CC1 [Compound 23]
Given the two records I and II , choose the one whose EC50 value is lower. Mark your selection by writing its label.
II
(II: 1.26 µM, I: 2.07 µM)

a: CCCN(CCCC(=O)O)c1cccc(S(=O)(=O)Nc2ccc(Cl)c(-c3ccccc3C)n2)n1 [Compound 156]
b: C=Cc1ccccc1-c1nc(NS(=O)(=O)c2cccc(N3CCC[C@H](CC(=O)O)C3)n2)ccc1C(F)(F)F [Compound 57]
Which record shows the lower EC50: the first, a , or the second, b ? Answer by stating the label of the chosen item.
a
(a: 0.92 µM, b: 1.97 µM)

* * *

Molecular target: delF508-CFTR (Homo sapiens, UniProt P13569, DEL508-508)
Construct: expressed in transfected cells
Assay: Measurement of delF508-CFTR-HRP surface expression in CFBE41o- cells
Type: cell-based
Settings: efficacy relative to reference compound 3-(6-(1-(2,2-difluorobenzo[d][1,3]dioxol-5-yl)cyclopropane-1-carboxamido)-3-methylpyridin-2-yl)benzoic acid; CFBE41o- cells, 24 h; read-out: DelF508-CFTR-HRP Amax %
Experimental: Measurement of delF508-CFTR-HRP Surface Expression in CFBE41o-Cells This assay quantifies the cell surface expressions of the mutant CFTR channel using an extracellular HRP tag. […] The median activity for the lowest concentration of the compounds on each assay plate was calculated and this value was used to normalize the signal for each well on the respective plate. […] The median value was determined and used to calculate compound activities as described below. […]
metric: Emax (%)

# count of solved cases: 3
- Cc1ccccc1-c1nc(NS(=O)(=O)c2cccc(N[C@@H]3[C@H]4CC[C@H](C4)[C@@H]3C(=O)O)n2)ccc1C(F)(F)F (racemic) [108a 108b (racemic mixture)]: 569
- Cc1ccccc1-c1nc(NS(=O)(=O)c2cccc(NCCCCC(=O)O)n2)ccc1C(F)(F)F [Compound 43]: 407
- Cc1ccccc1-c1nc(NS(=O)(=O)c2cccc(N(CCCC(=O)O)C3CC3)n2)ccc1C(F)(F)F [Compound 125]: 643

A: CCN(CCC(=O)O)c1cccc(S(=O)(=O)Nc2ccc(C(F)(F)F)c(-c3cccc(F)c3C)n2)n1 [Compound 56]
B: CC1(C(=O)O)CCN(c2cccc(S(=O)(=O)Nc3ccc(C(F)(F)F)c(-c4ccccc4-c4ncccn4)n3)n2)CC1 [Compound 18]
Return label of the item with the larger Emax. Candidates: A , B . Return value: the label identifying the chosen record.
A
(A: 906%, B: 97%)

1: Cc1ccccc1-c1nc(NS(=O)(=O)c2cccc(N3CCC(O)(C(C)(C)C(=O)O)CC3)n2)ccc1C(F)(F)F [Compound 9]
2: Cc1ccccc1-c1nc(NS(=O)(=O)c2cccc(NCCCC(=O)O)n2)ccc1C(F)(F)F [Compound 36]
Of 1 and 2 , which shows the smaller Emax value? // return label of chosen record
1
(1: 102%, 2: 222%)
